test system: HCT-8; test: Antiproliferative activity against human HCT-8 cells by MTT assay; assay type: functional, cell-based
quantity: pIC50
// field semantics: pIC50 = negative decimal log of concentration (mol/L)

Field: example entries. Status: answers known.
[[record]]
compound = "NS(=O)(=O)c1ccc(NC(=O)CCCCCNc2c(Nc3cc(Cl)cc(Cl)c3)c(=O)c2=O)cc1"
quantity = "pIC50"
value_measured = 4.41

[[record]]
compound = "COc1cccc2c1C(=O)c1c(O)c3c(c(O)c1C2=O)C[C@@](O)(C(=O)CO)C[C@@H]3O[C@H]1C[C@H](N)[C@H](O)[C@H](C)O1.Cl [DOXORUBICIN HYDROCHLORIDE]"
quantity = "pIC50"
value_measured = 5.92

[[record]]
compound = "NS(=O)(=O)c1ccc(NC(=O)CCCCCNc2c(Nc3ccc(F)cc3)c(=O)c2=O)cc1"
quantity = "pIC50"
value_measured = 4.44

[[record]]
compound = "N#Cc1ccc(Nc2c(NCCCCCC(=O)Nc3ccc(S(N)(=O)=O)cc3)c(=O)c2=O)cc1"
quantity = "pIC50"
value_measured = 4.50


Ask | Field request: pIC50 | item: "NS(=O)(=O)c1ccc(NC(=O)CCCCCNc2c(Nc3ccc(Cl)cc3)c(=O)c2=O)cc1"
Reply | 4.59

Ask | Field request: pIC50 | item: "NS(=O)(=O)c1ccc(NC(=O)CCCCCNc2c(Nc3ccc(C(F)(F)F)cc3)c(=O)c2=O)cc1"
Reply | 4.72

Ask | Field request: pIC50 | item: "Cc1ccc(Nc2c(NCCCCCC(=O)Nc3ccc(S(N)(=O)=O)cc3)c(=O)c2=O)cc1"
Reply | 4.49

Ask | Field request: pIC50 | item: "NS(=O)(=O)c1ccc(NC(=O)CCCCCNc2c(Nc3ccccc3)c(=O)c2=O)cc1"
Reply | 4.64

Ask | Field request: pIC50 | item: "NS(=O)(=O)c1ccc(NC(=O)CCCCCNc2c(Nc3ccc(Br)cc3)c(=O)c2=O)cc1"
Reply | 4.39

Ask | Field request: pIC50 | item: "COc1ccc(Nc2c(NCCCCCC(=O)Nc3ccc(S(N)(=O)=O)cc3)c(=O)c2=O)cc1"
Reply | 4.35
